Target protein (sequence): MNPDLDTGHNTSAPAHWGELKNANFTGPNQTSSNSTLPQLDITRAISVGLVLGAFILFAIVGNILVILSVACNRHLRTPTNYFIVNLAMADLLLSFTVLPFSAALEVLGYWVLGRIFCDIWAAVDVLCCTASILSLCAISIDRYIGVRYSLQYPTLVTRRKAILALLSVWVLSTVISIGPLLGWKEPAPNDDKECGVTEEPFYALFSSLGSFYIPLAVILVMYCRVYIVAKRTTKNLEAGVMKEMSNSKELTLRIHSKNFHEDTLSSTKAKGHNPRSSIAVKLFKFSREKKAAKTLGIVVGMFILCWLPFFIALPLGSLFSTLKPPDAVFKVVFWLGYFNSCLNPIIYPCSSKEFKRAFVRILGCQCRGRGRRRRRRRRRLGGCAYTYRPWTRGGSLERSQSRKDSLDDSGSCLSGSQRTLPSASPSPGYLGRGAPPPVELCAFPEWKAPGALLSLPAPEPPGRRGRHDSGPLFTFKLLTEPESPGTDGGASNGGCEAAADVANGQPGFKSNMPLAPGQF
Would you mind telling me the reported Ki of each entry?
Provide only the numeric value, understood in nM.

Request the reported Ki associated with `COc1cc2nc(N3CCN(C(=O)c4ccccc4)[C@H]4CCCC[C@H]43)nc(N)c2cc1OC`
0.49

`COc1cc2nc(N3CCN(C(=O)c4ccccn4)[C@H]4CCCC[C@H]43)nc(N)c2cc1OC` ?
5.89

Then what about the compound COc1cc2nc(N3CCN(C(=O)c4ccco4)[C@H]4CCCC[C@H]43)nc(N)c2cc1OC [CYCLAZOSIN] ?
0.135

Also `COc1cc2nc(N3CCN(C(=O)c4ccc(C)o4)[C@H]4CCCC[C@H]43)nc(N)c2cc1OC` ?
0.871
